system-under-test: T1, Rabbit v6-peptide (rabbit)
T1 construct: domain: v6-region (43 amino acids); also called Rb v6-peptide; rb v6-peptide
test-protocol: SPR SCK, antibody immobilised, peptide injected
Assignment: determine reported koff for the given binders.
Give bare numbers, in s⁻¹.

binder: AL-MN114-465 IgG1 LALA IAHA (antibody, V domains shown, Human IgG1 LALA IAHA, kappa) VH: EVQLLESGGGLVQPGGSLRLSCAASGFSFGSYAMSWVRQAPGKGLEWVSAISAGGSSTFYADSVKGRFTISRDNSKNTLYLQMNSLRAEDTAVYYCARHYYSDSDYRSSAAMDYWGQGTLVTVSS VL: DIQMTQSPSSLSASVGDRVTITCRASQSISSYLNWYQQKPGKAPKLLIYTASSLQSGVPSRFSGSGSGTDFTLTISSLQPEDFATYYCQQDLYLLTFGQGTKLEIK
koff, s⁻¹: 0.015

binder: AL-MN114-132 IgG1 LALA IAHA (antibody, V domains shown, Human IgG1 LALA IAHA, kappa) VH: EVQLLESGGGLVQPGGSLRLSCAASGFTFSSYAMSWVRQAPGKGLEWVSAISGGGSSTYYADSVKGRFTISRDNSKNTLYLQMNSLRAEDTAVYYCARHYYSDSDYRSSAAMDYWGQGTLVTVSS VL: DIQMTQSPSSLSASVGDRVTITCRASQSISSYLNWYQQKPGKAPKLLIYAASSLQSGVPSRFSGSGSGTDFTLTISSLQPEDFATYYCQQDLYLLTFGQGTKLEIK
koff, s⁻¹: 0.037

binder: AL-MN114-444 IgG1 LALA IAHA (antibody, V domains shown, Human IgG1 LALA IAHA, kappa) VH: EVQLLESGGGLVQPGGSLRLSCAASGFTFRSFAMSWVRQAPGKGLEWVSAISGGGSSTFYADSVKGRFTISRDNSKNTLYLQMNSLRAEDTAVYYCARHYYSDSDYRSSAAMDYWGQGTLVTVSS VL: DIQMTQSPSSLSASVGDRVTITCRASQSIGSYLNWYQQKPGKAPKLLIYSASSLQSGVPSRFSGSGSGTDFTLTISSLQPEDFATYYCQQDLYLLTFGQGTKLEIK
koff, s⁻¹: 0.012

Data request: Would you kindly share the measured koff for AL-MN114-71 IgG1 LALA IAHA (antibody, V domains shown, Human IgG1 LALA IAHA, kappa) VH: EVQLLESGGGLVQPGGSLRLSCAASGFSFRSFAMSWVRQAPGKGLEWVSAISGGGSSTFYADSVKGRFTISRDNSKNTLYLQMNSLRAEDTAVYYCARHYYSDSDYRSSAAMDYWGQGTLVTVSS VL: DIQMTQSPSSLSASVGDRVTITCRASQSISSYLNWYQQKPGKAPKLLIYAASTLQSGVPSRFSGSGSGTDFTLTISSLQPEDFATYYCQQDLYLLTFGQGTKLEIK ?
Data returned: 0.016

The measured values listed here are drawn from patent US20250340662A1.
